# target: P-gp (MDR1) (Homo sapiens, UniProt P08183)
# Sequence (P08183 whole entry): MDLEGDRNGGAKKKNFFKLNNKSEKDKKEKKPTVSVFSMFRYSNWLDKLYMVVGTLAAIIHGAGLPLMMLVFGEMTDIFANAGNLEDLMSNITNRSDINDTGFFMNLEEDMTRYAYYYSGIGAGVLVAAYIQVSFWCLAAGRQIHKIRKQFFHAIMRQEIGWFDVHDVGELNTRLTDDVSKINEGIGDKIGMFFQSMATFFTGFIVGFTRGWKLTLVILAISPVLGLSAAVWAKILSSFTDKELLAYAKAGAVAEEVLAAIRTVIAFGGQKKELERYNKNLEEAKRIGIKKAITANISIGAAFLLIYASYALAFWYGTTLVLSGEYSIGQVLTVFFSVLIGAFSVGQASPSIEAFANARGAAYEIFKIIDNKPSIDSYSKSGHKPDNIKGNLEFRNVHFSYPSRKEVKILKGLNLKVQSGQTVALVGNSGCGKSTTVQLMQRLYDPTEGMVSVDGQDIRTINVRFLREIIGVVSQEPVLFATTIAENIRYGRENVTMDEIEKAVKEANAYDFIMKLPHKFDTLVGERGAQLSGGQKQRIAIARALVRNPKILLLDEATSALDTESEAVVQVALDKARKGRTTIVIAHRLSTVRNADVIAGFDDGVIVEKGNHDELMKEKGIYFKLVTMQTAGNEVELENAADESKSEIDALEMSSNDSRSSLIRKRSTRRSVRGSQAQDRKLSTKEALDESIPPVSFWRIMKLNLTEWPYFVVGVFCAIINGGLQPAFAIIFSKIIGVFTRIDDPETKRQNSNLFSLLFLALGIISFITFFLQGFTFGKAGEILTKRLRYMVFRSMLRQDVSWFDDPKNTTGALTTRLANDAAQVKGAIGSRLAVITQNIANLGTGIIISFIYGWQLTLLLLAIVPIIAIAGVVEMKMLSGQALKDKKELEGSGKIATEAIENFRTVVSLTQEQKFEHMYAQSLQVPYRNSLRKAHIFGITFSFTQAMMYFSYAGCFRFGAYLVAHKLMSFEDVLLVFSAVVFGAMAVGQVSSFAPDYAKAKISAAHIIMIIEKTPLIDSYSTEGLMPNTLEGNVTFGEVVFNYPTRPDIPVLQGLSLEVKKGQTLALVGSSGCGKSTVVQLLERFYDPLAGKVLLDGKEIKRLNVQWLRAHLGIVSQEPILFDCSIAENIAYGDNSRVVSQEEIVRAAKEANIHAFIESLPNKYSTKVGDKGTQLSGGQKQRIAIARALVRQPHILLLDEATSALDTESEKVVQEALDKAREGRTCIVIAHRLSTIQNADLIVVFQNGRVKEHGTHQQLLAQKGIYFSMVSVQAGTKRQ
# assayRemarks: Bidirectional permeability in MDR1-MDCKII cells with and without GF120918
# experimentalConditions: dog, MDCK-MDR1, Mean recovery % A to B, without GF120918
endpointLabel: recovery at 2.5 h
Could you kindly put the unit after your number?

Guide cases for recovery at 2.5 h, answers given:
compound: COCCc1ccc(OCC(O)CNC(C)C)cc1 (centres unmarked) [Metoprolol, reference compound]
endpointLabel: recovery at 2.5 h
obsValue: 107%
//
compound: O=S(=O)(NC1CCCOc2c1nn(-c1ccccc1Cl)c2-c1ccc(Cl)cc1)c1ccc(Cl)cc1 (centres unmarked)
endpointLabel: recovery at 2.5 h
obsValue: 7.9%
//
compound: CS(=O)(=O)N1CCC(C(=O)NC2CCCOc3c2nn(-c2ccccc2Cl)c3-c2ccc(Cl)cc2)CC1 (centres unmarked)
endpointLabel: recovery at 2.5 h
obsValue: 75.2%
//
compound: CCOC(=O)N1CCC(C(=O)NC2CCCOc3c2nn(-c2ccccc2Cl)c3-c2ccc(Cl)cc2)CC1 (centres unmarked)
endpointLabel: recovery at 2.5 h
obsValue: 41.6%

Moving on to the next compound.
For reference, reported recovery at 2.5 h for CC(C)(C)NCC(O)COc1cccc2c1CC(O)C(O)C2 (centres unmarked) [Nadolol, reference compound] stands at 102%

Cited source for all entries: paper PMC12067444
